Reference for the values: patent US9884841B2

Experimental Target: Bcl-w (Homo sapiens)
Sequence (Q92843 1-193): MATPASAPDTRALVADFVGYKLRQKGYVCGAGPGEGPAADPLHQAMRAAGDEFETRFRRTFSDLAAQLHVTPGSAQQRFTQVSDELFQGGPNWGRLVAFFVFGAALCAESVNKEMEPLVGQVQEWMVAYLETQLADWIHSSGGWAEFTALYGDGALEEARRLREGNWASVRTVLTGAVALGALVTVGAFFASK
Property Measured: Ki

### Prompt Report Ki for `CC(C)c1cc(NC(=O)c2ccc(Oc3ccccc3)cc2)c(C(=O)O)cc1-c1ccc(COc2cccc(C(F)(F)F)c2)cc1` please.
### Response > 1 µM

---

Experimental Target: Bcl-2 (Homo sapiens)
Sequence (P10415 whole entry, species assumed): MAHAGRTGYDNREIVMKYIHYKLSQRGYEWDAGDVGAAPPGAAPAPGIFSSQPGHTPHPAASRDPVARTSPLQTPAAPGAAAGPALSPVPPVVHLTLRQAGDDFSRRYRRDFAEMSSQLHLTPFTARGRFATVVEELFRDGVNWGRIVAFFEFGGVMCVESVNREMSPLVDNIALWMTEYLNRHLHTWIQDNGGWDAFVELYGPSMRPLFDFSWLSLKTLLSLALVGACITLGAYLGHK
pKi: −log10 of the molar value.
Property Measured: pKi

### Prompt Param readout = pKi; param system = Bcl-2 (Homo sapiens); param query = `CC(C)c1cc(NC(=O)c2ccc(Oc3ccccc3)cc2)c(C(=O)O)cc1-c1ccc(COc2cccc(C(F)(F)F)c2)cc1` ; response: value
### Response < 6.00

---

Listed here are compounds together with their documented Ki.
Experimental Target: Mcl-1 (Homo sapiens, UniProt Q07820)
Sequence (Q07820 whole entry): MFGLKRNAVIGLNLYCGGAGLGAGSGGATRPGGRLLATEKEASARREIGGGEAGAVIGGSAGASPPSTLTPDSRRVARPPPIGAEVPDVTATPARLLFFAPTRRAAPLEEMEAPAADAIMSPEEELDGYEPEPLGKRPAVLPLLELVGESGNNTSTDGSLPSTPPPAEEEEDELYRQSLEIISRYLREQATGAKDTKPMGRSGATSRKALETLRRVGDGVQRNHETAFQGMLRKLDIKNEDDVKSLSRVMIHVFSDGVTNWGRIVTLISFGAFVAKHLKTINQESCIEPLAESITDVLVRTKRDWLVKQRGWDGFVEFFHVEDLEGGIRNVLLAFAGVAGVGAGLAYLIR
Assay Details: FP based binding assay to Mcl-1 (Bid BH3 peptide probe)
Condition Summary: Binding affinity of Mcl-1 inhibitors using FP based assay, Table 1
Write the answer as a number in nM, unit excluded.

Some compounds with known Ki results, for comparison:
{"columns": ["Compound", "Ki / nM"],
 "data": [
  ["CC(C)(C)c1ccc(N2CCN(C(=O)CCc3cccc(-c4ccc(C(=O)O)c(NS(=O)(=O)N5CCN(c6ccc(C(C)(C)C)cc6)CC5)c4)c3)CC2)cc1 [Compound 484]", 42],
  ["O=C(O)c1cc(-c2ccc(COc3cccc(C(F)(F)F)c3)cc2)ccc1NS(=O)(=O)c1ccc2ccccc2c1 [Compound 471]", 36],
  ["CCCc1ccc(-c2ccc(NS(=O)(=O)c3ccc4ccccc4c3)c(C(=O)O)c2)cc1 [Compound 466]", 94]
]}

### Prompt Param readout = Ki; param system = Mcl-1 (Homo sapiens, UniProt Q07820); param query = CC(C)c1cc(NS(=O)(=O)c2ccc3ccccc3c2)c(C(=O)O)cc1-c1ccc(COc2cccc(C(F)(F)F)c2)cc1 [Compound 474] ; response: value
### Response 23

---

Experimental Target: UniProtKB Q07820
Assay Details: FP based binding assay to Mcl-1 (Bid BH3 peptide probe)
Condition Summary: Binding affinity of Mcl-1 inhibitors using FP based assay, Table 1
Listed here are compounds together with their documented pKi.
Scale note: pKi = -log10(concentration in M).

Some compounds with known pKi results, for comparison:
{"columns": ["Test Smiles", "Property Measured", "Test Result"],
 "data": [
  ["O=C(O)c1cc(SCc2ccccc2)ccc1NS(=O)(=O)c1ccccc1", "pKi", 6.00],
  ["Nc1ccc(-c2ccc(COc3cccc(C(F)(F)F)c3)cc2)cc1C(=O)O", "pKi", 5.63],
  ["O=C(O)c1cc(SCCc2ccccc2)ccc1NS(=O)(=O)N1CCN(Cc2ccccc2)CC1", "pKi", 6.56],
  ["O=C(O)c1cc(-c2ccccc2COc2cccc3ccccc23)ccc1NS(=O)(=O)c1ccc2ccccc2c1", "pKi", 7.51],
  ["O=C(Nc1ccc(SCCc2ccccc2)cc1C(=O)O)c1ccccc1", "pKi", 6.05]
]}

Now take the following compound into account.
### Prompt Report pKi for `CC(C)(C)c1ccc(N2CCN(S(=O)(=O)Nc3ccc(SCCC(=O)Nc4ccccc4)cc3C(=O)O)CC2)cc1` please.
### Response 6.61

---

Experimental Target: Mcl-1 (Homo sapiens)
Assay Details: FP based binding assay to Mcl-1 (Bid BH3 peptide probe)
Condition Summary: Binding affinity of Mcl-1 inhibitors using FP based assay, Table 1
Property Measured: pKi
Scale note: pKi = -log10(concentration in M).

Some compounds with known pKi results, for comparison:
{"columns": ["Test Smiles", "pKi"],
 "data": [
  ["Nc1ccc(-c2ccccc2COc2cccc(C(F)(F)F)c2)cc1C(=O)O", 5.94],
  ["O=C(O)c1cc(SCCc2ccccc2)ccc1NS(=O)(=O)CCc1ccccc1", 6.46]
]}

### Prompt Report pKi for `CC(C)c1cc(NS(=O)(=O)c2ccc(Oc3ccccc3)cc2)c(C(=O)O)cc1-c1ccc(COc2cccc(C(F)(F)F)c2)cc1` please.
### Response 7.89

### Prompt Report pKi for `CC(C)c1cc(NC(=O)c2ccc(Oc3ccc(F)cc3)cc2)c(C(=O)O)cc1-c1ccc(COc2cccc(C(F)(F)F)c2)cc1` please.
### Response 8.10

---

Experimental Target: UniProt Q07817
Sequence (Q07817 whole entry, species assumed): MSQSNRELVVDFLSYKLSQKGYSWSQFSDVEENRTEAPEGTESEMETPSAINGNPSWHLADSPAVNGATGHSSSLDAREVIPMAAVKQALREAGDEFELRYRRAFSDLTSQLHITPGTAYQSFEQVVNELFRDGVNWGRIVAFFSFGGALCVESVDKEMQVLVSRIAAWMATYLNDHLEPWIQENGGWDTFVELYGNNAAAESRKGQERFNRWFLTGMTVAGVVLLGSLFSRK
Property Measured: Ki

### Prompt Report Ki for `CC(C)c1cc(NC(=O)c2ccc(Oc3ccccc3)cc2)c(C(=O)O)cc1-c1ccc(COc2cccc(C(F)(F)F)c2)cc1` please.
### Response > 1 µM

---

Listed here are compounds together with their documented pKi.
Experimental Target: Mcl-1 (Homo sapiens)
Assay Details: FP based binding assay to Mcl-1 (Bid BH3 peptide probe)
Condition Summary: binding affinity to Mcl-1
Scale note: pKi = -log10(concentration in M).

{"columns": ["Compound", "Experimental Target", "pKi"],
 "data": [
  ["CC(C)c1cc(NC(=O)c2ccc(Oc3ccccc3)cc2)c(C(=O)O)cc1-c1ccc(COc2cccc(C(F)(F)F)c2)cc1 [Compound 483]", "Mcl-1 (Homo sapiens)", 8.15],
  ["O=C(O)c1cc(SCCc2ccccc2)ccc1NS(=O)(=O)c1ccc(-c2ccc(Cl)cc2)cc1 [Compound 380]", "Mcl-1 (Homo sapiens)", 7.51]
]}

Now take the following compound into account.
### Prompt Report pKi for O=C(O)c1cc(-c2ccc(COc3cccc4ccccc34)cc2)ccc1NS(=O)(=O)c1ccc2ccccc2c1 [Compound 475] please.
### Response 7.57

---

Experimental Target: Mcl-1 (Homo sapiens, UniProt Q07820)
Assay Details: FP based binding assay to Mcl-1 (Bid BH3 peptide probe)
Condition Summary: Binding affinity of Mcl-1 inhibitors using FP based assay, Table 1
Property Measured: pKi
Scale note: pKi = -log10(concentration in M).

Some molecules with known pKi results, for comparison:
{"columns": ["Test Smiles", "pKi"],
 "data": [
  ["CC(C)c1cc(NS(=O)(=O)c2ccc(Oc3ccc(F)cc3)cc2)c(C(=O)O)cc1-c1ccc(COc2cccc(C(F)(F)F)c2)cc1", 8.00],
  ["Cc1cccc(-c2cc(NS(=O)(=O)c3ccccc3)c(C(=O)O)cc2SCCC(=O)Nc2ccccc2)c1", 6.36],
  ["O=C(O)c1cc(-c2ccccc2COc2cccc(C(F)(F)F)c2)ccc1NS(=O)(=O)c1ccc2ccccc2c1", 7.30],
  ["O=C(O)c1cc(NCCc2ccccc2)ccc1NS(=O)(=O)c1ccccc1", 5.24],
  ["Nc1ccc(SCCc2ccccc2)cc1C(=O)O", 5.84],
  ["O=C(O)c1cc(SCCc2ccccc2)ccc1NS(=O)(=O)c1ccc(-c2ccccc2)cc1", 7.32],
  ["O=C(O)c1cc(SCCc2ccccc2)ccc1NS(=O)(=O)Cc1ccc(Cl)cc1", 6.62]
]}

Now take the following molecule into account.
### Prompt Report pKi for `O=C(O)c1ccc(SCCc2ccccc2)cc1NS(=O)(=O)c1ccccc1` please.
### Response 5.63
